All figures here come from patent US6737383B1.

Tested on: giant foxtail
test_protocol: Test B pre/postemergence giant foxtail
Type: in vivo, Setaria faberii
applied_conditions: Postemergence, Rate 62 g/ha; scale 0 to 10, 0 is no effect, 10 is complete control
Catalogue of Giant foxtail plant response rating readings, one per entry.
Give the figure only, with no unit attached.

// known answers, use as guide
[
  {
    "compound_structure": "Cc1cc(C)c(-n2c(=O)on(C(=O)N(c3ccc(F)cc3)C(C)C)c2=O)c(C)c1",
    "Giant foxtail plant response rating": 0
  },
  {
    "compound_structure": "CCCn1c(=O)on(C(=O)N(c2ccc(F)cc2)C(C)C)c1=O",
    "Giant foxtail plant response rating": 8
  },
  {
    "compound_structure": "CCN(C(=O)n1oc(=O)n(-c2c(C)cccc2C)c1=O)C1CCCCC1",
    "Giant foxtail plant response rating": 0
  },
  {
    "compound_structure": "CCc1cccc(C)c1-n1c(=O)on(C(=O)N(c2ccc(F)cc2)C(C)C)c1=O",
    "Giant foxtail plant response rating": 0
  }
]

## Task Reported Giant foxtail plant response rating for `Cc1cccc(Cl)c1-n1c(=O)on(C(=O)N(c2ccc(F)cc2)C(C)C)c1=O` : what is it?
## Result 0

----------
System: giant foxtail
test_protocol: Test B pre/postemergence giant foxtail
Format: in vivo, Setaria faberii
applied_conditions: Rate 125 g/ha, Postemergence; scale 0 to 10
readout_label: Giant foxtail plant response rating

[
  {
    "compound": "CCc1cccc(C)c1-n1c(=O)on(C(=O)N(c2ccc(F)cc2)C(C)C)c1=O [Compound 201]",
    "Giant foxtail plant response rating": 0
  }
]

## Task Reported Giant foxtail plant response rating for CC(C)N(C(=O)n1oc(=O)n([C@H](C)c2ccccc2)c1=O)c1ccc(F)cc1 [Compound 179] : what is it?
## Result 0

## Task Now try C=C(C)CCn1c(=O)on(C(=O)N(c2ccc(F)cc2)C(C)C)c1=O [Compound 199] .
## Result 2

## Task Now try Cc1nc(C)c(Cn2c(=O)on(C(=O)N(c3ccc(F)cc3)C(C)C)c2=O)s1 [Compound 232] .
## Result 0

----------
Catalogue of Crabgrass plant response rating (0 to 10 scale) readings, one per entry.
Tested on: crabgrass
test_protocol: Test B pre/postemergence crabgrass
Format: in vivo, Digitaria sanguinalis
applied_conditions: Preemergence, Rate 125 g/ha; 0 is no effect, 10 is complete control
Give the figure only, with no unit attached.

[
  {
    "compound_structure": "CC(C)N(C(=O)n1oc(=O)n([C@H](C)c2ccccc2)c1=O)c1ccc(F)cc1",
    "test_target": "crabgrass",
    "value_measured": 7
  },
  {
    "compound_structure": "CC(C)N(C(=O)n1oc(=O)n(C(C)C)c1=O)c1ccc(F)cc1",
    "test_target": "crabgrass",
    "value_measured": 7
  }
]

## Task Reported Crabgrass plant response rating (0 to 10 scale) for `CCCn1c(=O)on(C(=O)N(c2ccc(F)cc2F)C(C)C)c1=O` : what is it?
## Result 9

## Task Now try `CC(C)N(C(=O)n1oc(=O)n(Cc2ccccc2Cl)c1=O)c1ccc(F)cc1` .
## Result 6

----------
Catalogue of Sugarbeets plant response rating readings, one per entry.
Tested on: sugar beet
test_protocol: Test B pre/postemergence sugar beet
Format: in vivo, Beta vulgaris
applied_conditions: Preemergence, Rate 500 g/ha; scale 0 (no effect) to 10 (complete control)
Give the figure only, with no unit attached.

[
  {
    "compound_structure": "CCN(CC)C(=O)n1oc(=O)n(Cc2cccs2)c1=O",
    "test_target": "sugar beet",
    "Sugarbeets plant response rating": 0
  },
  {
    "compound_structure": "Cc1ccccc1Cn1c(=O)on(C(=O)N(c2ccc(F)cc2F)C(C)C)c1=O",
    "test_target": "sugar beet",
    "Sugarbeets plant response rating": 9
  }
]

## Task Reported Sugarbeets plant response rating for `CCc1cccc(C)c1-n1c(=O)on(C(=O)N(c2ccc(F)cc2)C(C)C)c1=O` : what is it?
## Result 0

## Task Now try `Cc1c(Cl)cccc1-n1c(=O)on(C(=O)N(c2ccc(F)cc2)C(C)C)c1=O` .
## Result 8

## Task Now try `Cc1cccc(C)c1-n1c(=O)on(C(=O)N(c2ccc(Cl)cc2)C(C)C)c1=O` .
## Result 0

## Task Now try `Cc1cccc(Cl)c1-n1c(=O)on(C(=O)N(c2ccc(F)cc2)C(C)C)c1=O` .
## Result 3

## Task Now try `Cc1nn(C)c(Cl)c1-n1c(=O)on(C(=O)N(c2ccc(F)cc2F)C(C)C)c1=O` .
## Result 2

## Task Now try `Cc1ccccc1-n1c(=O)on(C(=O)N(c2ccc([N+](=O)[O-])cc2)C(C)C)c1=O` .
## Result 0
